Values were extracted from PubChem BioAssay (NCI).

test system: HS 578T breast; test: NCI tumour cell line growth inhibition, 48 h
Metric: TGI

Cn1cc(-c2ccc(CNc3cc(-c4cnc5cc(OCCCN6CCCC6)ccn45)ncn3)cc2)cn1    26.2 µM
N=c1oc2ccc(Cl)cc2cc1C(=O)Nc1ccccc1    > 59.6 µM
COc1ccc(NCC(=O)Nn2c(C)nc3ccc(S(=O)(=O)Nc4ccc(OC)cc4)cc3c2=O)cc1    > 100 µM
COC1OC(COC(=O)NCCCCC(=O)C(F)(F)F)C(O)C(O)C1O (configuration not stated)    > 100 µM
O=C(CC(C(=O)c1cccs1)c1ccsc1)c1ccsc1 (configuration not stated)    71.2 µM
NC1CNC(=O)c2cscc21 (configuration not stated)    > 100 µM

Task item: Write down TGI measured for item N#Cc1ccc(OCc2ccc3nc(-c4ccccc4)c(Cl)nc3c2)cc1
Reply: > 100 µM

---

system: OVCAR-8 ovarian; experiment: NCI tumour cell line growth inhibition, 48 h
Metric: TGI (µM)
One number for each entry, in µM.

Some compounds with known TGI results, for comparison:
C1=NCCOCCN=Cc2ccccc2OCc2cccc(n2)COc2ccccc21    16.9
COc1cnc2c(c1)C(=O)c1c-2n(CCCN2CCCC2)c(=O)c2cc(Cl)ccc12    12.2
Cc1cc(N2CCCC2)nc(N(CCCNc2ccnc3cc(Cl)ccc23)Cc2ccc3c(c2)OCO3)n1    5.41
CCOC(CCCN1CCC2(CC1)C(=O)N(C)CN2c1ccccc1)(OCC)c1ccc(F)cc1    33.6
S=c1ssc(Sc2ccccn2)c1Cl    40.8

Parameters: items (list). Returns: TGI for each item.
1. Cc1c2ccncc2c(C)c2c1[nH]c1ccc(OC(C)(C)C)cc12
2. Cc1ccc(-n2cnc3c(N/N=C4\SCC(=O)N4c4ccccc4)ncnc32)cc1
3. O=Cc1cc2c(o1)C(=O)c1ccccc1C2=O
4. CN(C)c1ccc(/C=C/c2cc[n+](C)c3ccccc23)cc1
5. Clc1ccc(CN2COc3c(cc(Cl)c4cccnc34)C2)cc1

Reply:
1. 9.75
2. 11.8
3. 2.72
4. 10.1
5. 5.05

---

system: SK-MEL-28 melanoma; assay: NCI tumour cell line growth inhibition, 48 h
Metric: TGI

O=c1[nH]cc(OCC(F)(F)F)c(=O)[nH]1    > 100 µM
Nc1nc(Nc2cccc(F)c2)nc2ccccc12    29 µM
COc1ccc(NCC(=O)Nn2c(C)nc3ccc(S(=O)(=O)Nc4ccc(OC)cc4)cc3c2=O)cc1    > 100 µM

Parameters: items (list). Returns: TGI for each item.
1. CC(C)(Br)C(=O)/C=C/c1ccccc1
2. CCN1C(=O)C(=Cc2ccc(-c3ccccc3)cc2)C(=O)N(CC)C1=S
3. CCOc1ccc(NC(=O)CC2SC(N)=NC2=O)cc1 (stereo not given)
4. CCOC(=O)CN1CCSC1=NC#N

Reply:
1: 28.9 µM; 2: > 100 µM; 3: > 100 µM; 4: > 100 µM

Parameters: items (list). Returns: TGI for each item.
1. O=C(O)CCC1CCc2cccc3occ1c23 (stereo not given)
2. COc1cc(/C=C(/c2ccccc2)[N+](=O)[O-])c(OC)c2c1OCO2
3. CC(=O)OC1C2(CC3N4C(=O)C5(CO)SSC4(CC31O)C(=O)N5C)OC(C)C(C)(C)C2=O (stereo not given)

Reply:
["> 100 µM", "2.84 µM", "0.0696 µM"]

Parameters: items (list). Returns: TGI for each item.
1. Cc1ncc([N+](=O)[O-])n1CCNC(=O)CCCn1cnc([N+](=O)[O-])n1
2. CCCCCCCC(=O)N/N=C/c1ccc(Sc2nccn2C)c([N+](=O)[O-])c1
3. NC1CNC(=O)c2cscc21 (stereo not given)

Reply:
1: > 100 µM; 2: 27.3 µM; 3: > 100 µM

Parameters: items (list). Returns: TGI for each item.
1. Cc1cc(C2(c3cc(C)c(O)c(C(=O)O)c3)OS(=O)(=O)c3ccccc32)cc(C(=O)O)c1O
2. Cc1ccc(-c2n[nH]c(=O)[nH]2)cc1

Reply:
1. > 100 µM
2. > 100 µM
